experiment: Toxicity liver stage against HepG2, at 10uM; format: cell-based; design: test concentration 10 uM, cell line HepG2-A16-CD81EGFP; conditions: human, HepG2-A16-CD81EGFP cells; read-out: INHIBITION

# MOLECULE, cytotoxicity at 10 µM
data = [
    ("O=C(C1CC(F)(F)C1)N1C[C@@H]2CN(CC3CC3)CCO[C@@H]2C1", "-0.336%"),
    ("Cc1nn(C)c2nc(NCCOCCO)sc12", "-5%"),
    ("CCCOc1ccccc1NCC(=O)Nc1ccc(CC)cc1", "6.37%"),
    ("OCCN1CCN(Cc2cc3c(cc2Br)OCCO3)CC1", "7.59%"),
    ("O=C(CCC1CCCO1)NCCCO (centres undefined)", "11.2%"),
    ("COCC(=O)N1CCN(C(=O)c2scnc2C)CC1", "-9.75%"),
    ("O=C1CC(C2CCCCC2)c2c(n(C3CCCC3)[nH]c2=O)N1 (centres undefined)", "-5.01%"),
    ("CS(=O)(=O)N1CC2(CCN(C(=O)c3csnn3)CC2)c2ccccc21", "7.88%"),
    ("CN1CCN(C(=O)c2nc3c(o2)CN(C(=O)c2cccnc2)C3)CC1", "-7.06%"),
    ("COCc1noc(Cc2cc(Cl)c3c(c2)OCCCO3)n1", "0.583%"),
    ("O=C(Nc1ccc(F)c(F)c1)N1CCC2(CCC(=O)N(C3CC3)C2)CC1", "-0.381%"),
    ("CN(CCO)C1CCN(c2ncc3c(n2)CCN3c2ccccc2)CC1", "-2.3%"),
    ("CCCN(CC)C(=O)c1cc2c(c3ccccc3n2C)n1C(=O)N(C)C", "-4.89%"),
    ("CC(NC(=O)NCCCN(C)S(C)(=O)=O)c1ccc(C#N)cc1 (centres undefined)", "-5.77%"),
    ("CC(C)OCCCNC(=O)CS(=O)(=O)Cc1ccc(C(C)C)cc1", "0.239%"),
    ("CC(C)c1cncnc1-c1cc(F)cc2c1OC(CN)C2 (centres undefined)", "-4.02%"),
    ("CCCc1nc(C)cc(NC(C)Cc2cnccn2)n1 (centres undefined)", "-0.166%"),
    ("O=C(CNCCn1cccn1)NCC1(c2ccccc2)CCCC1", "-5.92%"),
    ("NC(=O)CCC1CCCN(c2ncnc3c2Cc2ccccc2OC3)C1 (centres undefined)", "0.721%"),
    ("Cc1ccc2nc(CN(C)Cc3[nH]nc4c3CCC4)[nH]c2c1C", "2.74%"),
    ("CC(CC(=O)NS(=O)(=O)c1ccc2c(c1)OCCO2)c1ccc(F)cc1 (centres undefined)", "-31.6%"),
    ("CCSc1nc(N)c(NC(=O)c2ccc(OC)c(OC)c2)c(=O)[nH]1", "-6.24%"),
    ("CN1C[C@@H](N)C[C@H]1C(=O)N1CCC(Cc2ccc(F)cc2)CC1", "-21.2%"),
    ("CC(C)CNC(=O)c1[nH]nc(C2CC2)c1Br", "2.71%"),
]

====

assay: Toxicity liver stage against HepG2, at 10uM; type: cell-based; parameters: test concentration 10 uM, cell line HepG2-A16-CD81EGFP; conditions: human, HepG2-A16-CD81EGFP cells; read-out: INHIBITION
// reported cytotoxicity at 10 µM per item
QUANTITY KIND: cytotoxicity at 10 µM (%)

# COMPOUND, QUANTITY KIND, QUANTITATIVE RESULT
data = [
    ("O=C(Nc1ccc(CCN2CCC(O)CC2)cc1)C1CCCCC1", "cytotoxicity at 10 µM", -17.7),
    ("O=S(=O)(Nc1ccon1)c1cc(Cl)cc2c1OCC2", "cytotoxicity at 10 µM", 5.81),
    ("O=C(NCCS(=O)(=O)N1CCN(c2ncccn2)CC1)C1CCCC1", "cytotoxicity at 10 µM", -3.91),
    ("CCS(=O)(=O)N1Cc2nnn(C)c2C(COCCN(C)C)C1 (configuration not stated)", "cytotoxicity at 10 µM", 1.55),
    ("Cc1nnc2n1CCN(Cc1ccc3c(c1)OCCO3)C2", "cytotoxicity at 10 µM", -8.95),
    ("CCCc1nnc(N2CC[C@@](O)(C3CCOCC3)[C@H](C)C2)s1", "cytotoxicity at 10 µM", 8.26),
    ("Oc1cccc2ccc(CN3CCC4(CCNCC4)C3)nc12", "cytotoxicity at 10 µM", -6.19),
    ("Cc1ccc(CN2CCN(C3CCCC3)CC2CCO)o1 (configuration not stated)", "cytotoxicity at 10 µM", -6.05),
    ("CS(=O)(=O)N1CCCC(Cc2ccnc(Nc3ccccn3)c2)C1 (configuration not stated)", "cytotoxicity at 10 µM", 5.46),
    ("CNS(=O)(=O)c1ccc(CN2CCC(c3ccncc3)CC2)cc1", "cytotoxicity at 10 µM", 10),
    ("O=C(NCCNc1cnccn1)N1CCN(c2nccs2)CC1", "cytotoxicity at 10 µM", -0.84),
    ("CCN1CCN(c2ncc3c(=O)n(Cc4ccco4)ccc3n2)CC1", "cytotoxicity at 10 µM", -15.9),
]
